Assignment: determine reported IC50 for the given molecules.
Biological target: BRD4 bromo domain 1 [BRD4(1)] (Homo sapiens, UniProt O60885)
Construct: N-terminally His6-tagged BRD4(1) (amino acids 67-152)
Assay: BRD4(1)/acetylated peptide H4 binding assay (TR-FRET)
Details: inhibition of interaction between His6-tagged BRD4(1) (amino acids 67-152) and acetylated histone H4 peptide
One number for each entry, in nM.

{"molecule": "COc1cc(C(=O)N[C@H]2CC[C@H](N3CCN(CC4CC4)CC3)CC2)ccc1Nc1ccc2c(n1)N(C1CCOCC1)[C@H](C)C(=O)N2C", "unit_string": "nM", "obs_value": 149}
{"molecule": "C[C@@H]1C(=O)N(C)c2ccc(Nc3ccc(C(=O)N4CCN(C(=O)OC(C)(C)C)CC4)cc3)nc2N1Cc1ccccc1", "unit_string": "nM", "obs_value": 840}
{"molecule": "COc1cc(C(=O)N2CC3(CCS3(=O)=O)C2)ccc1Nc1ccc2c(n1)N(C1CCCCCC1)[C@H](C)C(=O)N2C", "unit_string": "nM", "obs_value": 448}

Provide IC50 for all items below, preserving their order.
1. COc1cc(C(=O)NCCc2cccnc2)ccc1Nc1ccc2c(n1)N(C1CCOCC1)[C@H](C)C(=O)N2C
2. COc1cc(C(=O)NCCN(C)C)ccc1Nc1ccc2c(n1)N(C1CCOCC1)[C@H](C)C(=O)N2C
3. CC(C)N1c2nc(Nc3ccc(C(=O)N4CC5(CCS5(=O)=O)C4)cc3)ccc2N(C)C(=O)[C@H]1C
4. CC(C)N1c2nc(Nc3ccc(S(=O)(=O)N(C)C)cc3)ccc2N(C)C(=O)[C@H]1C

Given back:
[172, 52, 150, 156]

Provide IC50 for all items below, preserving their order.
1. C[C@@H]1C(=O)N(C)c2ccc(Nc3ccc(C(=O)NC4CN(C)C4)cc3)nc2N1C1CCOCC1
2. COc1cc(S(=O)(=O)N[C@H]2CC[C@H](N3CCN(CC4CC4)CC3)CC2)ccc1Nc1ccc2c(n1)N(C1CCOCC1)[C@H](C)C(=O)N2C

Given back:
[145, 29]

---

Assignment: determine reported IC50 for the given molecules.
Molecular target: BRD4 bromo domain 2 [BRD4(2)] (Homo sapiens)
Construct: N-terminally His6-tagged BRD4(2) (amino acids 357-445)
Test: BRD4(2)/acetylated peptide H4 binding assay (TR-FRET)
Details: inhibition of interaction between His6-tagged BRD4(2) (amino acids 357-445) and acetylated histone H4 peptide
Give bare numbers, in µM.

Some solved cases for reference:
{"molecule": "COCCN1c2nc(Nc3ccc(C(=O)N[C@H]4CC[C@H](N5CCN(CC6CC6)CC5)CC4)cc3)ccc2N(C)C(=O)C1C (stereo partly shown)", "assay_endpoint": "IC50", "obs_value": 0.187}
{"molecule": "C[C@@H]1C(=O)N(C)c2ccc(Nc3ccc(S(=O)(=O)N(C)C)cc3)nc2N1Cc1ccccc1", "assay_endpoint": "IC50", "obs_value": 0.111}
{"molecule": "COc1cc(C(=O)NCCN2CCN(C)CC2)ccc1Nc1ccc2c(n1)N(C1CCCCCC1)[C@H](C)C(=O)N2C", "assay_endpoint": "IC50", "obs_value": 0.135}

Here is another molecule to look at.
Asked: I would be grateful if you could share the reported IC50 for Cc1cc(C(=O)NCCN(C)C)ccc1Nc1ccc2c(n1)N(C1CCOCC1)[C@H](C)C(=O)N2C .
Given back: 0.206

---

Target: BRD4 bromo domain 1 [BRD4(1)] (Homo sapiens, UniProt O60885)
Construct: N-terminally His6-tagged BRD4(1) (amino acids 67-152)
Assay: BRD4(1)/acetylated peptide H4 binding assay (TR-FRET)
Settings: inhibition of interaction between His6-tagged BRD4(1) (amino acids 67-152) and acetylated histone H4 peptide
assay_endpoint: pIC50
One number for each entry, as −log10 of the molar value.

Some solved cases for reference:
{"structure_as_smiles": "CC(C)N1c2nc(Nc3ccc(C(=O)NC4CCN(C)CC4)cc3)ccc2N(C)C(=O)[C@H]1C", "obs_value": 6.55}
{"structure_as_smiles": "COc1cc(C(=O)N2CCN(C(C)C)CC2)ccc1Nc1ccc2c(n1)N(C1CCCCC1)[C@H](C)C(=O)N2C", "obs_value": 6.71}
{"structure_as_smiles": "C[C@@H]1C(=O)N(C)c2ccc(Nc3ccc(C(=O)NCCN(C)C)cc3)nc2N1C1CCOCC1", "obs_value": 6.99}

Asked: I would be grateful if you could share the reported pIC50 for COc1cc(S(=O)(=O)N2CCN(C)CC2)ccc1Nc1ccc2c(n1)N(C1CCOCC1)[C@H](C)C(=O)N2C .
Given back: 6.97

---

Target: BRD4 bromo domain 2 [BRD4(2)] (Homo sapiens)
Construct: N-terminally His6-tagged BRD4(2) (amino acids 357-445)
Assay: BRD4(2)/acetylated peptide H4 binding assay (TR-FRET)
Details: inhibition of interaction between His6-tagged BRD4(2) (amino acids 357-445) and acetylated histone H4 peptide
assay_endpoint: IC50 (nM)
Give bare numbers, in nM.

Provide IC50 for all items below, preserving their order.
1. C[C@@H]1C(=O)N(C)c2ccc(Nc3ccc(S(=O)(=O)N(C)C)cc3)nc2N1C1CCCCCC1 [Example 95]
2. COc1cc(C(=O)N2CC3(CCS3(=O)=O)C2)ccc1Nc1ccc2c(n1)N(C1CCCC1)[C@H](C)C(=O)N2C [Example 10]
3. COc1cc(C(=O)NC2CCN(C)CC2)ccc1Nc1ccc2c(n1)N(C(C)C)[C@H](C)C(=O)N2C [Example 2]
4. C[C@@H]1C(=O)N(C)c2ccc(Nc3ccc(C(=O)NC4CN(C)C4)cc3)nc2N1C1CCOCC1 [Example 50]

Given back:
[126, 230, 622, 111]

---

Assignment: determine reported pIC50 for the given compounds.
Molecular target: BRD4 bromo domain 2 [BRD4(2)] (Homo sapiens, UniProt O60885)
Construct: N-terminally His6-tagged BRD4(2) (amino acids 357-445)
Assay: BRD4(2)/acetylated peptide H4 binding assay (TR-FRET)
Conditions: inhibition of interaction between His6-tagged BRD4(2) (amino acids 357-445) and acetylated histone H4 peptide
Answers are plain numbers, as −log10 of the molar value.

Some solved cases for reference:
{"compound": "COc1cc(C(=O)NC2CCN(C(C)=O)CC2)ccc1Nc1ccc2c(n1)N(Cc1ccccc1)[C@H](C)C(=O)N2C", "system": "BRD4 bromo domain 2 [BRD4(2)] (Homo sapiens, UniProt O60885)", "pIC50": 6.99}
{"compound": "COc1cc(C(=O)NC2CCC(O)CC2)ccc1Nc1ccc2c(n1)N(C(C)C)[C@H](C)C(=O)N2C (stereo partly drawn)", "system": "BRD4 bromo domain 2 [BRD4(2)] (Homo sapiens, UniProt O60885)", "pIC50": 6.93}

Here is another compound to look at.
Asked: I would be grateful if you could share the reported pIC50 for CC(=O)N1CCC(NC(=O)c2ccc(Nc3ccc4c(n3)N(Cc3ccccc3)[C@H](C)C(=O)N4C)cc2)CC1 .
Given back: 6.95

---

Assignment: determine reported pIC50 for the given molecules.
Target: BRD4 bromo domain 2 [BRD4(2)] (Homo sapiens)
Construct: N-terminally His6-tagged BRD4(2) (amino acids 357-445)
Test: BRD4(2)/acetylated peptide H4 binding assay (TR-FRET)
Conditions: inhibition of interaction between His6-tagged BRD4(2) (amino acids 357-445) and acetylated histone H4 peptide
Numbers only, as −log10 of the molar value.

Some solved cases for reference:
{"structure_as_smiles": "COc1cc(C(=O)N2CCN(C(C)C)CC2)ccc1Nc1ccc2c(n1)N(C1CCCCC1)[C@H](C)C(=O)N2C", "pIC50": 6.94}
{"structure_as_smiles": "COc1cc(C(=O)NC2CN(C)C2)ccc1Nc1ccc2c(n1)N(C1CCCCCC1)[C@H](C)C(=O)N2C", "pIC50": 7.12}
{"structure_as_smiles": "C[C@@H]1C(=O)N(C)c2ccc(Nc3ccc(C(=O)NC4CCN(C)CC4)cc3)nc2N1C1CCOCC1", "pIC50": 6.87}
{"structure_as_smiles": "COc1cc(C(=O)NC2CN(C)C2)ccc1Nc1ccc2c(n1)N(C1CCCCC1)[C@H](C)C(=O)N2C", "pIC50": 6.93}

Here is another molecule to look at.
Asked: I would be grateful if you could share the reported pIC50 for COc1cc(C(=O)N[C@H]2CC[C@H](N3CCN(CC4CC4)CC3)CC2)ccc1Nc1ccc2c(n1)N(Cc1ccccc1)[C@H](C)C(=O)N2C .
Given back: 6.98

---

Assignment: determine reported IC50 for the given compounds.
Target: BRD4 bromo domain 1 [BRD4(1)] (Homo sapiens, UniProt O60885)
Construct: N-terminally His6-tagged BRD4(1) (amino acids 67-152)
Test: BRD4(1)/acetylated peptide H4 binding assay (TR-FRET)
Details: inhibition of interaction between His6-tagged BRD4(1) (amino acids 67-152) and acetylated histone H4 peptide

{"compound": "C[C@@H]1C(=O)N(C)c2ccc(Nc3ccc(S(=O)(=O)N(C)C)cc3)nc2N1C1CCOCC1 [Example 27]", "IC50": "32 nM"}
{"compound": "C[C@@H]1C(=O)N(C)c2ccc(Nc3ccc(C(=O)N4CC5(COC5)C4)cc3)nc2N1Cc1ccccc1 [Example 41]", "IC50": "122 nM"}
{"compound": "C[C@@H]1C(=O)N(C)c2ccc(Nc3ccc(C(=O)NC4CCC(O)CC4)cc3)nc2N1C1CCCCCC1 (stereo partly drawn) [Example 90]", "IC50": "341 nM"}

Provide IC50 for all items below, preserving their order.
1. C[C@@H]1C(=O)N(C)c2ccc(Nc3ccc(C(=O)NCCN4CCN(C)CC4)cc3)nc2N1C1CCCCCC1 [Example 89]
2. C[C@@H]1C(=O)N(C)c2ccc(Nc3ccc(S(=O)(=O)N(C)C)cc3)nc2N1C1CCN(C(=O)OC(C)(C)C)CC1 [Example 106]
3. COc1cc(C(=O)NC2CCCC2)ccc1Nc1ccc2c(n1)N(C(C)C)[C@H](C)C(=O)N2C [Example 6]
4. CC(C)N1c2nc(Nc3ccc(S(=O)(=O)N4CCN(C)CC4)cc3)ccc2N(C)C(=O)[C@H]1C [Example 99]

Given back:
["185 nM", "632 nM", "255 nM", "145 nM"]
